Structures can show the parent of a compound that is named as a salt.
test-readout: melting point

>>> df
                                   compound  reported_measurement
0  CN1CCC(C(=O)c2cccc(NC(=O)c3ccc(O)cc3)c2)CC1 (as salt: hydrochloride)              > 200 °C

// query State its melting point: `CN1CCC(C(=O)c2cccc(NC(=O)c3ccc(F)cc3I)c2)CC1.Cl`
// result > 250 °C

// query Please indicate melting point recorded for `Cl.Nc1cccc(C(=O)C2CCNCC2)c1`
// result 208 to 210 °C

// query Consider the compound CN1CCC(C(=O)c2cccc(NC(=O)c3ccncc3)c2)CC1 (as salt: hydrochloride) and give its recorded melting point.
// result > 200 °C

// query Indicate the recorded melting point value for this compound: O=C(Nc1cccc(C(=O)C2CCNCC2)c1)c1ccc(F)cc1 (as salt: hydrochloride)
// result > 225 °C

// query Supply melting point value. Item: CN1CCC(C(=O)c2cccc(NC(=O)c3ccc(F)cc3F)c2)CC1 (as salt: hydrochloride)
// result 181 to 183 °C

// query Write down melting point measured for item CN1CCC(C(=O)c2cccc(NC(=O)c3ccco3)c2)CC1 (as salt: hydrochloride)
// result > 200 °C
